Value source: PubChem BioAssay (NCATS)

Reported activity, negative = inhibition values for a set of compounds
- assay_overview: Stat Signaling Pathway (AID 446);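 further: ME-180 cervical cancer cells given 40 pM IL-6 alongside compound; SIE-controlled beta-lactamase reporter measured as 460/530 nm FRET emission ratio; on the % scale 0 is the no-effect control and ±100 the full control effect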
- run_parameters: ME-180 (cervical carcinoma) SIE beta-lactamase reporter, IL-6 stimulated, 5 h; at 7.69 µM (top of the series) unless noted
Inconclusive results are not listed.

chemical_string | activity, negative = inhibition, %
FC(F)(F)c1ccccc1-c1nc(NC2CCNCC2)c2ccccc2n1 | 1.97
CS(=O)(=O)N1CCC2(CCCN(c3ccccn3)C2)CC1 | 7.37
CS(=O)(=O)N1CCC[C@@]2(CCN(C(=O)Nc3cccc(F)c3)C2)C1 | -3.89

----------
- system: Cytochrome P450 3A4 (Homo sapiens) (UniProt P08684)
- Sequence (P08684 whole entry, looked up): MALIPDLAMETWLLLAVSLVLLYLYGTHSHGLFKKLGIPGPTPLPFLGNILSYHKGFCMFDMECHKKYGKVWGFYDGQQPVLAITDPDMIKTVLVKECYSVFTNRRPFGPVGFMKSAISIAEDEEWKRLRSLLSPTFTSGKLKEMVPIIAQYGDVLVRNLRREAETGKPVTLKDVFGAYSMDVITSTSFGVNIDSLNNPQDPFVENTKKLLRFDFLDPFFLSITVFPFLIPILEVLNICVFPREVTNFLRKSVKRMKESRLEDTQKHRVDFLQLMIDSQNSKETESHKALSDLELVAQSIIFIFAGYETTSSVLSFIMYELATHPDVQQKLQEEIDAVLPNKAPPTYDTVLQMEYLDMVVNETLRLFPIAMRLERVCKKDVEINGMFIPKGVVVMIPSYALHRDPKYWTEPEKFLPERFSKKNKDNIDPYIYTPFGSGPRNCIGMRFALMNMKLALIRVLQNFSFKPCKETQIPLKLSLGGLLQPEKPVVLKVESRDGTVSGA
- assay_overview: qHTS Assay for Activators of Cytochrome P450 3A4 (AID 885); further: nearly all actives have a fitted effect of over 65% in size
- run_parameters: recombinant CYP3A4, Luciferin-PPXE luminescence, 60 min; series mostly up to 57.1 µM
Active and inactive are the calls of the source. The call rests on the fitted dose curve; in most records, active means well fitted activation curve with a large enough effect; inconclusive means small, poorly fitted or top-dose-only effect; inactive means no such curve, though single readings can be large or run the other way.
Labels: true (active), false (inactive)

chemical_string | system | cat
O=S(=O)(c1ccccc1)N1CCC2(CCCN(c3ncccn3)C2)CC1 | Cytochrome P450 3A4 (Homo sapiens) (UniProt P08684) | false
Cc1cccc(CNc2ccnc(-c3ccoc3)n2)c1 | Cytochrome P450 3A4 (Homo sapiens) (UniProt P08684) | false
CNc1cc(-c2ccccc2C(F)(F)F)ncn1 | Cytochrome P450 3A4 (Homo sapiens) (UniProt P08684) | true

----------
- assay_overview: qHTS Assay for Lipid Storage Modulators (AID 1519); on activity change, negative = inhibition: on the % scale 0 is the no-effect control and ±100 the full control effect
- run_parameters: Drosophila S3 cells, BODIPY lipid droplet/cell ratio, laser cytometry; at 57.5 µM (top of the series); cells loaded with oleic acid
- Procedure: NIH Molecular Libraries Probe Production Centers Network [MLPCN] NIH Chemical Genomics Center [NCGC] Assay Submitter (PI): Beller, Mathias; Max-Planck-Institut fur Biophysikalische Chemie […] We dispensed 4 uL of cells at 1.25 x 10^6 cells/mL into LoBase Aurora COC 1,536-well plates (black walled, clear bottom) with a bottle-valve solenoid-based dispenser (Aurora) to obtain 5,000 cells/well. […] The ratio of the total intensity in PMT channel 1 over total intensity of channel 3 was also calculated. […]
Results filed as inconclusive are left out.

chemical_string | unit_of_measure | activity change, negative = inhibition
COc1ccc(-n2c(=O)cnc3cnc(N(C)C)nc32)cc1 | % | 5.53
COc1ccc(NC(=O)N2CC[C@@]3(CCCN(C(=O)c4cccn4C)C3)C2)cc1 | % | 2.71
COc1cccc(Cn2c(=O)cnc3cnc(Oc4ccccc4)nc32)c1 | % | -0.165
CS(=O)(=O)N1CCC2(CCCN(C(=O)Nc3ccccc3)C2)CC1 | % | 1.48
CC(C)NC(=O)N1CCCC2(CCN(C(=O)c3ccncc3)CC2)C1 | % | 3.7
N.N.N.N.N.N.N.N.N.N.N.N.N.N.O.O.[Cl-].[Cl-].[Cl-].[Cl-].[Cl-].[Cl-].[Ru].[Ru].[Ru] | % | 3.46
COc1ccc(Oc2ncc3nc(-c4cn(C)c5ccccc45)c(=O)n(C4CC4)c3n2)cc1 | % | 2.32
O=c1c(CCc2ccccc2)nc2cnc(N3CCNCC3)nc2n1CCc1ccccc1 | % | 2.33
CN(C)Cc1ccccc1-c1nc(NCc2cccs2)c2ccccc2n1 | % | -0.128

----------
- assay_overview: qHTS Assay for Lipid Storage Modulators (AID 1519)
- run_parameters: Drosophila S3 cells, BODIPY lipid droplet/cell ratio, laser cytometry; measured here: lipid channel max response; cells loaded with oleic acid
Inconclusive results are not listed.

chemical_string | max response
COCCn1c(=O)c(-c2ccc(F)cc2)nc2cnc(N3CCOCC3)nc21 | 16.8%
O=C(c1cnccn1)N1CCC2(CC1)CN(c1ccncc1)C2 | -17.9%
COCC(=O)N1CCC2(CCCN(C(=O)Nc3ccc(OC)cc3)C2)CC1 | 18.7%
CC(=O)N1CCC2(CC1)CN(C(c1ccccc1)c1ccccc1)C2 | 21%
CS(=O)(=O)N1CCC[C@@]2(CCN(Cc3nccs3)C2)C1 | 20.5%
Cc1ccccc1-c1nccc(NCc2cccs2)n1 | 6%
Cc1nc2cnc(OCc3ccccc3)nc2n(C)c1=O | 17.9%
O=c1cnc2cnc(Nc3ccccc3)nc2n1C1CC1 | 2.12%
COCCn1c(=O)c(-c2ccc(Cl)cc2)nc2cnc(Oc3cccc(Cl)c3)nc21 | 25.5%
COc1ccccc1-c1cncnc1NCc1cccnc1 | 18.5%
COc1ccc(CNc2ncnc3ccc(-c4cccnc4)cc23)c(OC)c1 | -21.1%
O=C(c1ccncc1)N1CCC2(CC1)CN(C(c1ccccc1)c1ccccc1)C2 | 3.6%
CN1CCN(c2ncc3nc(-c4ccc(Cl)cc4)c(=O)n(-c4ccccc4)c3n2)CC1 | 16.4%
COC(=O)N1CCC2(CCN(Cc3cc(C(F)(F)F)cc(C(F)(F)F)c3)CC2)CC1 | 2.77%
Cc1cccc(CNc2cc(-c3c(C)noc3C)ncn2)c1 | 22%
O=C(c1ccco1)N1CCC[C@@]2(CCN(Cc3nccs3)C2)C1 | 12.9%
COC(=O)N1CCC2(CC1)CN(C(c1ccccc1)c1ccccc1)C2 | 5.91%
CN1CCN(c2nc(-c3ccc4c(c3)OCO4)nc3ccccc23)CC1 | 35.9%
OC[C@H]1O[C@@H](n2cnc3c(NCCc4ccccc4)ncnc32)[C@H](O)[C@H]1O | -26.1%
Cc1noc(C)c1C(=O)N1CCC[C@@]2(CCN(Cc3ccccc3)C2)C1 | 22.2%
c1csc(CNc2ncnc3ccc(-c4ccoc4)cc23)c1 | 14.7%
Cc1ccccc1-c1ccc2ncnc(NC3CC3)c2c1 | -0.878%
Cc1noc(C)c1-c1cc(NC2CCNCC2)ncn1 | -14.9%
Cc1noc(C)c1C(=O)N1CCC2(CC1)CN(c1ncccn1)C2 | 24.4%
O=C(Nc1cccc(F)c1)N1CCC2(CC1)CCN(C(=O)c1cnccn1)CC2 | 15.9%
COCCNc1ncncc1-c1c(C)noc1C | 24.5%
Cc1noc(C)c1C(=O)N1CCC2(CCN(Cc3cc(C(F)(F)F)cc(C(F)(F)F)c3)CC2)CC1 | -1.09%
CN1CCN(c2ncc3nc(-c4cc(F)cc(F)c4)c(=O)n(Cc4cccs4)c3n2)CC1 | 3.46%
Cn1cc(-c2nc3cnc(Oc4cccc(Cl)c4)nc3n(CCC#N)c2=O)c2ccccc21 | 0.937%
N#Cc1ccc(CN2CCCC3(CCN(C(=O)c4cccc(F)c4)CC3)C2)cc1 | 19.8%
Cc1cnc(CNc2cc(-c3cccc(NS(C)(=O)=O)c3)ncn2)cn1 | 40.2%
CN(C)c1ccnc(-c2ccccc2C(F)(F)F)n1 | 18.9%
CC(=O)NCCNc1cc(-c2ccccc2C(F)(F)F)ncn1 | 3.95%
CN(C)c1ncc2nc(-c3ccc(F)cc3)c(=O)n(Cc3ccc(F)cc3)c2n1 | 25.7%

----------
- system: Ubiquitin carboxyl-terminal hydrolase 1 (Homo sapiens) (UniProt O94782)
- Sequence (O94782 whole entry, looked up): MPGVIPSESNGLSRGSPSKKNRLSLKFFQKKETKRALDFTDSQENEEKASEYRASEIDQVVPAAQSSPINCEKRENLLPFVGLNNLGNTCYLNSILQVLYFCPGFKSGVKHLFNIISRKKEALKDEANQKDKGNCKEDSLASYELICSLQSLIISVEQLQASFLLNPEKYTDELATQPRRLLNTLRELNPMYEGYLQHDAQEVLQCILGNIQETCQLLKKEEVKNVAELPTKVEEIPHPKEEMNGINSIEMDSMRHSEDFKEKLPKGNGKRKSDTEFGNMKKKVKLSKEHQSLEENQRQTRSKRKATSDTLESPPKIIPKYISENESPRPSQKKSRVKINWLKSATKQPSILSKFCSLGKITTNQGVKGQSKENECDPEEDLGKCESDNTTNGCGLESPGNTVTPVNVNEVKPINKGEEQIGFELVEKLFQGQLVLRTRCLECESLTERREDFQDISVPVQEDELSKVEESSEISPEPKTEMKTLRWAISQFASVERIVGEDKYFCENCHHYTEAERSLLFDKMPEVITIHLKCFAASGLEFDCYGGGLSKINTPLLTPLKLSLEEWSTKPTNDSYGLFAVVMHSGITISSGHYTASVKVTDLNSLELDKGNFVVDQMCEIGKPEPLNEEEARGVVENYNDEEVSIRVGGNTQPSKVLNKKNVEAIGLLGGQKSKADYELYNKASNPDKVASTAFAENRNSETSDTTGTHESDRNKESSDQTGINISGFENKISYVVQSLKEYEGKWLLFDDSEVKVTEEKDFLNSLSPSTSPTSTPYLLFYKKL
- assay_overview: Inhibitors of USP1/UAF1: Pilot qHTS (AID 504865);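 further: rhodamine fluorescence freed from ubiquitin-rhodamine substrate followed over time; top concentration of the series differs between compounds; on the % scale 0 is the no-effect control and ±100 the full control effect; nearly all actives have a fitted effect of over 35% in size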
- run_parameters: purified USP1/UAF1, Ub-rhodamine cleavage fluorescence; series mostly up to 54.9 µM
Records with an inconclusive call do not appear. Calls of active or inactive are those of the source. Calls follow the shape of the dose curve; as a rule, active = well fitted inhibition curve with a large enough effect; inconclusive = small, poorly fitted or top-dose-only effect; inactive = flat fitted curve, though single readings scatter.

chemical_string | outcome
CNc1ccnc(-c2ccccc2C(F)(F)F)n1 | inactive
CN(Cc1ccco1)c1cc(-c2ccoc2)ncn1 | inactive
O=c1c(-c2cc(F)cc(F)c2)nc2cnc(N3CCOCC3)nc2n1C[C@H]1CCCO1 | inactive
Clc1ccccc1-c1ccc2ncnc(NCc3cccnc3)c2c1 | inactive
COc1ccc(-n2c(=O)cnc3cnc(N4CCN(C)CC4)nc32)cc1 | inactive
COCCNc1nc(-c2ccccc2OC)nc2ccccc12 | inactive
COCCNc1cc(-c2ccccc2C(F)(F)F)ncn1 | inactive
COc1ncc2nc(-c3ccccc3)c(=O)n(-c3ccccc3)c2n1 | inactive
CCNc1ncc2nc(-c3ccccc3)c(=O)n(Cc3cccs3)c2n1 | inactive
CCNc1ncc2nc(C)c(=O)n(Cc3cccs3)c2n1 | inactive
COc1cccc(Cn2c(=O)c(-c3cc(F)cc(F)c3)nc3cnc(N(C)C)nc32)c1 | inactive
COc1ccccc1-c1cncnc1NCCc1cnc[nH]1 | inactive
COc1ccc(Oc2ncc3nc(-c4ccc(Cl)cc4)c(=O)n(C[C@H]4CCCO4)c3n2)cc1 | inactive
CCNc1ncc2nc(-c3ccc(OC)cc3)c(=O)n(C[C@H]3CCCO3)c2n1 | inactive
COCCn1c(=O)cnc2cnc(Nc3cccc(OC)c3)nc21 | inactive
CN(C)c1ccnc(-c2ccccc2C(F)(F)F)n1 | inactive
COc1cccc(Cn2c(=O)c(-c3ccc(F)cc3)nc3cnc(N(C)C)nc32)c1 | inactive
CC(=O)NCCNc1ncnc2ccc(-c3c(C)noc3C)cc12 | inactive
CC(=O)NCCNc1ncncc1-c1ccc(N(C)C)cc1 | inactive
CNc1cc(-c2ccccc2CN(C)C)ncn1 | inactive
O=c1cnc2cnc(N3CCOCC3)nc2n1CCc1ccccc1 | inactive
Cc1cnc(CNc2ncncc2-c2ccccc2C(F)(F)F)cn1 | inactive
COc1cccc(-c2cc(NCc3cccs3)ncn2)c1 | inactive
COCCNc1ncncc1-c1c(C)noc1C | inactive
Fc1ccc(Nc2ccnc(-c3ccoc3)n2)cc1 | inactive
Cn1cc(-c2nc3cnc(Oc4ccccc4)nc3n(C)c2=O)c2ccccc21 | inactive
COc1ccc2[nH]cc(CCNc3ncnc4ccc(-c5cccnc5)cc34)c2c1 | inactive
FC(F)(F)c1ccccc1-c1nc(NC2CCNCC2)c2ccccc2n1 | inactive
CN(Cc1ccco1)c1ncnc2ccc(-c3ccoc3)cc12 | inactive
Cc1cnc(CNc2ccnc(-c3c(C)noc3C)n2)cn1 | inactive
N#CCCn1c(=O)c(-c2ccc(Cl)cc2)nc2cnc(Oc3ccccc3)nc21 | inactive
COCCn1c(=O)c(-c2cn(C)c3ccccc23)nc2cnc(Oc3cccc(Cl)c3)nc21 | inactive
Cc1nc2cnc(N3CCNCC3)nc2n(Cc2cccs2)c1=O | inactive
